Hey, just so you know, these numbers are from patent US20240218054A1.

targetDesc: T1, recombinant YFV E protein (soluble E, sE; YFV Asibi strain) (Yellow fever virus, Asibi strain, UniProt Q6DV88 286-678)
T1 construct: also called YFV E antigen; YFV E monomer
T1 sequence (Q6DV88 286-678): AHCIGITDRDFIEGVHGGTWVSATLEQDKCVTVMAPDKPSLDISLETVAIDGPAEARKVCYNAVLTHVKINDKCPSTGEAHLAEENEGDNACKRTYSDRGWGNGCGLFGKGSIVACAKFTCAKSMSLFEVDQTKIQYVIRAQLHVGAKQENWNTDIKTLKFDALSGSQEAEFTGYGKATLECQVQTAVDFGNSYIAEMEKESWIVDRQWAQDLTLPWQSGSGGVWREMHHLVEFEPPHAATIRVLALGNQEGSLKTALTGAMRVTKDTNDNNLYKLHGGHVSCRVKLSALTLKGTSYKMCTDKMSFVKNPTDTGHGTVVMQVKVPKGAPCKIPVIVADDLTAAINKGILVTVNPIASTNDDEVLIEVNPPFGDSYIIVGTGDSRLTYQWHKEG
measurementDescription: BLI monovalent (IgG on tip)
reportedMetric: pKd
The value called pKd is obtained by taking minus log10 of the concentration in mol/L.

Answered examples (4):
ADI-48951 (antibody, V domains shown, full-length IgG; also called Antibody Number 138) VH: EVQLLESGPGLVKPSGTLSLTCAVSGASISSNNWWSWVRQSPGKGLEWIGEIFHSGTTNYNPSLKSRVTISVDKSKNQFSLKLNSVTAADTAVYYCARDVGVAAVITGSVRWGQGTLVTVSS VL: DIVLTQSPDSLAVSLGERAAINCKSSQSVFFSSDNKNYLAWYQQKPGQPPKLLIYWASTRESGVPDRFSGSGSGTDFTLTISSLQAEDVAVYYCQQFYTTPSTFGQGTKVEIK
8.57
ADI-49147 (antibody, V domains shown, full-length IgG; also called Antibody Number 2) VH: QVQLQESGGDLVQPGGSLRLSCAASGFTFSNYAMNWVRQAPGKGLEWVSAINRGGDSTYYADSVKGRFTISRDNSKNTLYLQMNSLRAEDTAVYYCAKDHGGKYGWWYFDLWGRGTLVTVSS VL: DIRVTQSPATLSVSPGERATLSCRASQSVSSNLAWYQQKPGQAPRLLIYDASNRATGIPVRFSGSGSGTDFTLTISSLQSEDFAVYYCQQYDNWPLTFGGGTKVEIK
8.43
ADI-42191 (antibody, V domains shown, full-length IgG; also called Antibody Number 67) VH: EVQLVESGGGLVQPGGSLRLSCAASGFTFSDHYMDWVRQAPGKGLEWVGRTRNKPNSHTTEYAASVKGRFTISRDDSKNSLYLQMNSLQTEDTAVYYCARVYGGPDDYWGQGTLVTVSS VL: EIVMTQSPSSLSASVGDRVTITCRASQSIRSYLNWYQQKPGKAPKLLIYAASSLQSGVPLRFSGSGSGTDFTLTISSLQPEDFATYYCQQSSITPPTFGQGTKLEIK
8.67
ADI-46596 (antibody, V domains shown, full-length IgG; also called Antibody Number 35) VH: QVQLQESGPGLVKPSGTLSLTCAVSGGSISSNNWWSWVRQPPGKGLEWIGDTYHSGSPSYNPSLKSRVTISVDKSKNEFSLKLSSVTAADTAVYFCARYCSGATCYGSNGMDVWGQGTTVTVSS VL: QSVLTQPPSMSAAPGQKVTISCSGSSSNIGNNYVSWYRQLPGTAPKLLIYDNDKRPSGIPDRFSGSKSGTTATLGITGLQTGDEAVYYCGTWDFRLSALFGGGTKLTVL
8.29

What does the record list as pKd for ADI-49133 (antibody, V domains shown, full-length IgG; also called Antibody Number 6) VH: EVQLLESGGGLVQPGGSLRLSCAASGFTFRNYAMNWVRQTPGKGLEWVSGISGGGDSTNYADSVKGRFTISRDNSRNTLYLQLNSLRAEDTAVYYCAKDLAVSTPRYWFDSWGQGTLVTVSS VL: DIQMTQSPSSLSASVGDRVTITCRASQTISVDLNWYQHKPGKAPKLLIFAASTLQSGVPSRFSGSGSGTDFTLTIRSLQPEDFATYYCQQSYSIPRITFGQGTRLEIK ?
8.16

// query pKd value for entry ADI-42151 (antibody, V domains shown, full-length IgG; also called Antibody Number 51) VH: QVQLQESGPGLVKPSGTLSLTCAVSGGSISSSNWWSWVRQPPGKGLEWIGEIYHSGSTTYNPSLKSRVTISVDKSKNQFSLKLSSVTAADTAVYYCARGPLKTYWYFDLWGRGTLVTVSS VL: QSVVTQPPSVSAAPGQKVTISCSGSSSNIGNNYVSWYQQLPGTAPKLLIYDNNKRPSGIPDRFSGSKSGTSATLGITGLQTGDEADYYCGTWDTSLSAGRVFGGGTKLTVL
6.53

Bench note: what pKd did ADI-42821 (antibody, V domains shown, full-length IgG; also called Antibody Number 49) VH: EVQLLESGGGLVPPGGSLRLSCAASGFTFSNYAMSWVRQAPGKGLEWVSAISGSGDSTYYADSVKGRFTLSRDTSKKMVYLHMSNLRDDDTAVYYCARDQGFTTDWPCDYWGQGTLVTVSS VL: DIVLTQSPSTLSASVGDRVTVTCRASQNINTYLAWYQQIPGKAPRLLIYRASSLESGVPSRFSGSGSGTEFTLTISSLQPDDFATYYCQHYNSFSVKFGQGTKVEIK show?
7.92
